tested on: HeLa cells; assay: HeLa cell viability (PrestoBlue) assay, 72 h; format: cell-based, human; conditions: Homo sapiens; HeLa cells, 72 h, PrestoBlue, drug applied alone; read-out: GI50, drug alone
PROPERTY LABEL: GI50 (nM)
The response must be a number in nM with no trailing unit.

# count of solved cases: 3
CC(C)C[C@H](NC(=O)[C@H](Cc1ccccc1)NC(=O)c1cnccn1)B(O)O [Bort, bortezomib, reference compound] : 35.9
CC(=O)O[C@@]12CO[C@@H]1C[C@H](O)[C@@]1(C)C(=O)[C@H](O)C3=C(C)[C@@H](OC(=O)[C@H](O)[C@@H](NC(=O)OC(C)(C)C)c4ccccc4)C[C@@](O)([C@@H](OC(=O)c4ccccc4)[C@H]21)C3(C)C [DTX, docetaxel, reference compound] : 1.1
C/C(=C\c1csc(C)n1)[C@@H]1C[C@@H]2O[C@]2(C)CCC[C@H](C)[C@H](O)[C@@H](C)C(=O)C(C)(C)[C@@H](O)CC(=O)O1 [Epo-B, epothilone-B, reference compound] : 0.5

Task: Specify the recorded GI50 for CC(=O)O[C@H]1C(=O)[C@@]2(C)[C@H]([C@H](OC(=O)c3ccccc3)[C@]3(O)C[C@H](OC(=O)[C@H](O)[C@@H](NC(=O)c4ccccc4)c4ccccc4)C(C)=C1C3(C)C)[C@]1(OC(C)=O)CO[C@@H]1C[C@@H]2O [PTX, paclitaxel, reference compound] , system: HeLa cells.
Output: 4.2

* * *

system: HeLa cells; assay: HeLa cell viability (PrestoBlue) assay, 72 h; type: cell-based, human; conditions: ratio at the highest noncytotoxic dose of carbazole analog; readout of NAMPT activation
PROPERTY LABEL: GI50 FK866 with carbazole/GI50 FK866
Give a plain numeric answer without units written out.

The examples below pair each entry with its known result.
CCOC(=O)Oc1ccc2[nH]c3c(C)cc(-n4cccc4)c(C)c3c2c1 : 1.1
Cc1cc(-n2cccc2)c(C)c2c1[nH]c1ccc(Cl)cc12 : 2.6
Cc1cc(-n2cccc2)c(C)c2c1[nH]c1cc(Cl)ccc12 : 0.93

Task: Provide GI50 FK866 with carbazole/GI50 FK866, tested on HeLa cells, for Cc1cc(-n2ccc(C=O)c2)c(C)c2c1[nH]c1ccc(Br)cc12 .
Output: 1

Task: Provide HeLa cells GI50 FK866 with carbazole/GI50 FK866 reading for CCc1cccc2c1[nH]c1c(C)cc(-n3cccc3)c(C)c12 .
Output: 1.5

Task: Please look at Cc1cc(-n2c(C)ccc2C)c(C)c2c1[nH]c1ccc(Cl)cc12 and tell me its recorded GI50 FK866 with carbazole/GI50 FK866 on HeLa cells.
Output: 1.09

* * *

Each entry below lists one item and its recorded GI50 FK866 with carbazole/GI50 FK866 value.
test system: HeLa cells; test: HeLa cell viability (PrestoBlue) assay, 72 h; type: cell-based, human; conditions: ratio at the highest noncytotoxic dose of carbazole analog; readout of NAMPT activation

Cc1cc(-n2c(C)ccc2C)c(C)c2c1[nH]c1ccc(Br)cc12 [Compound 9] : 0.99

Task: State its GI50 FK866 with carbazole/GI50 FK866: Cc1cc(-n2ccc(C=O)c2)c(C)c2c1[nH]c1ccc(Cl)cc12 [Compound 13]
Output: 1

Task: Output GI50 FK866 with carbazole/GI50 FK866 of Cc1cc(-n2ccc(CO)c2)c(C)c2c1[nH]c1ccc(Cl)cc12 [Compound 8]
Output: 1

Task: // fetch GI50 FK866 with carbazole/GI50 FK866 given entry Cc1cc(-n2ccc(CN(C)C)c2)c(C)c2c1[nH]c1ccc(Cl)cc12 [Compound 6]
Output: 1

Task: Quickly give me recorded GI50 FK866 with carbazole/GI50 FK866 for CCOC(=O)Oc1ccc2[nH]c3c(C)cc(-n4c(C)ccc4C)c(C)c3c2c1 [Compound 15]
Output: 1.1

Task: Give GI50 FK866 with carbazole/GI50 FK866 for Cc1cc(-n2cccc2)c(C)c2c1[nH]c1ccc(Br)cc12 [Compound 2]
Output: 2

Task: Check the records and state GI50 FK866 with carbazole/GI50 FK866 for CCNCc1ccn(-c2cc(C)c3[nH]c4ccc(Cl)cc4c3c2C)c1 [Compound 7]
Output: 1

Task: Entry COc1cccc(NCC(F)Cn2c3ccc(Cl)cc3c3c(C)c(-n4cccc4)cc(C)c32)c1 (stereo not drawn) [Compound 16] needs its GI50 FK866 with carbazole/GI50 FK866 filled in; supply it.
Output: 0.98

Task: Kindly indicate its recorded GI50 FK866 with carbazole/GI50 FK866. Item: Cc1cc(-n2cccc2)c(C)c2c1[nH]c1ccc(O)cc12 [Compound 11]
Output: 1.3

The reported measurements were obtained from paper PMC12571071.
